meta.source: ChEMBL document CHEMBL1212935

# Species on record: Homo sapiens
# Experiment notes: Selectivity ratio of Ki for human CB1 receptor to Ki for human CB2 receptor
Measurement label: Selectivity Index
Keep it simple and answer with nothing but the number.

Recorded Selectivity Index, per entry:
INSERT INTO results (smiles_text, measurement_label, result) VALUES
  ('CCCCCn1cc(C(=O)NC23CC4CC(CC(C4)C2)C3)c(=O)c2cc(-n3cccc3)ccc21', 'Selectivity Index', 42),
  ('CCCCCn1cc(C(=O)NN2CCCCC2)c(=O)c2cc(Br)ccc21', 'Selectivity Index', 5),
  ('CCCCCn1cc(C(=O)N[C@H]2C(C)(C)[C@H]3CC[C@]2(C)C3)c(=O)c2cc(Br)ccc21', 'Selectivity Index', 0.6);

Kindly review the next compound as well.
Q: I would be grateful if you could share the reported Selectivity Index for CCCCCn1cc(C(=O)N[C@H]2C(C)(C)[C@H]3CC[C@]2(C)C3)c(=O)c2cc(-c3ccco3)ccc21 .
Result: 200

---

# Species: Homo sapiens
# Experiment notes: Selectivity ratio of Ki for human CB1 receptor to Ki for human CB2 receptor
Measured Selectivity Index, listed per entry.

Recorded Selectivity Index, per entry:
INSERT INTO assay_data (smiles_text, measurement_label, result) VALUES
  ('CCCCCn1cc(C(=O)NC23CC4CC(CC(C4)C2)C3)c(=O)c2cc(/C=C/C(C)(C)C)ccc21', 'Selectivity Index', '> 140'),
  ('CCCCCn1cc(C(=O)NC23CC4CC(CC(C4)C2)C3)c(=O)c2cc(-c3ccc(Cl)s3)ccc21', 'Selectivity Index', '> 223');

Q: I would be grateful if you could share the reported Selectivity Index for CCCCCn1cc(C(=O)NC23CC4CC(CC(C4)C2)C3)c(=O)c2cc(-c3ccc(-c4ccccc4)cc3)ccc21 .
Result: > 55

Q: I would be grateful if you could share the reported Selectivity Index for CCCCCn1cc(C(=O)NC23CC4CC(CC(C4)C2)C3)c(=O)c2cc(/C=C/c3ccccc3)ccc21 .
Result: > 153
